Values were extracted from patent US12599582B2.

System: HBV
Test: HBV-DNA Antiviral Assay Using HepG2.2.15 Cells (extracellular HBV DNA by qPCR)
Assay type: cell-based, hepatitis B virus (HBV)
Settings: Hepatitis B virus; HBV DNA inhibition, HepG2.2.15 cells, extracellular HBV DNA by qPCR; read-out: EC50
measurement_label: EC50

C#C[C@](CO)(NC(=O)C(=O)c1c(C)c(C(=O)Nc2ccc(F)c(C(F)(F)F)c2)n(C)c1C)C1CC1 [Compound 65a]	< 1 nM
C#CC1(NC(=O)C(=O)c2c(C)c(C(=O)Nc3ccnc(Br)c3F)n(C)c2C)CC(F)(F)C1	1 to 10 nM
Cc1c(C(=O)C(=O)NC2(c3ncc[nH]3)COC2)c(C)n(C)c1C(=O)Nc1ccc(F)c(C(F)(F)F)c1	1 to 10 nM

Form: Entry = C#CC1(NC(=O)C(=O)c2c(C)c(C(=O)Nc3ccnc(Br)c3F)n(C)c2C)COC1 | System = HBV | EC50 = ____
1 to 10 nM
